The following variants are shown together with reported KM values.
B1: glmS ribozyme (parent)
chain: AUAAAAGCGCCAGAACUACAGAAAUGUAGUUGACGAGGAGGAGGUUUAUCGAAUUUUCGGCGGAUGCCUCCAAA

Variants of: B1
EXPERIMENT SUMMARY: KM; higher = weaker cofactor use; RNA array
APPLIED CONDITIONS: with glucosamine-6-phosphate
Numeric answer only, unit µM assumed.

Example cases with answers are listed next.
# CHANGES, KM (µM)
rows = [
    ("U46G C71U", 1750),
    ("A33C U47A", 2950),
    ("G44A U65A", 828),
    ("G41C U54G", 1610),
]

Q) // Input: A12C A14U . Output its KM only.
A) 2270

Q) // Input: U55G U65A . Output its KM only.
A) 3100

Q) // Input: G29C C67G . Output its KM only.
A) 1430

Q) // Input: C10U A53G . Output its KM only.
A) 6420

Q) // Input: A12C U47G . Output its KM only.
A) 1400

Q) // Input: A15U G66A . Output its KM only.
A) 7800
